These data points were gathered from patent US20260078103A1.

Item-by-item account of pEC50
system: T47D cells expressing mutant PI3Ka (H1047R); assay: In vitro cell proliferation, T47D cells (CellTiter-Glo); format: cell-based; settings: inhibition of proliferation, 72 hours, read-out: Avg T-47D EC50
pEC50: −log10 of the molar value.

molecule	pEC50
Cc1cc(C(C)Nc2ccccc2C(=O)O)c2cc(N3CC4(CCN(CC(F)(F)F)CC4)C3)n(C)c(=O)c2c1 (stereo not drawn)	6.30 to 9.00
Cc1cc([C@@H](C)Nc2ccccc2C(=O)O)c2cc([C@H]3C[C@@H]3C(C)(C)O)n(C)c(=O)c2c1 (single isomer, unassigned)	6.30 to 9.00
Cc1nc(C)c(-c2ncc(-c3cc4c(C(C)Nc5ccccc5C(=O)O)cc(F)cc4c(=O)n3C)cc2F)cc1F (stereo not drawn)	6.30 to 9.00
C[C@@H](Nc1ccccc1C(=O)O)c1cc(F)cc2c(=O)n(C)c(-c3cnc(-c4cn(C)nc4F)c(F)c3)cc12	6.30 to 9.00
Cc1cc([C@@H](C)Nc2ccccc2C(=O)O)c2cc(-c3cnc(OC4CC4)cn3)n(C)c(=O)c2c1	6.30 to 9.00

Q: Under T47D cells expressing mutant PI3Ka (H1047R): pEC50 value of Cc1cc(C(C)Nc2ccccc2C(=O)O)c2cc(N3CC4(CC(C(F)(F)F)C4)C3)n(C)c(=O)c2c1 (single isomer, unassigned) [Example 83] ?
Result: 4.82 to 5.70

* * *

Item-by-item account of EC50
system: SKBR3 cells express WT PI3Ka; assay: In vitro cell proliferation, SKBR3 cells (CellTiter-Glo); type: cell-based; conditions: Homo sapiens, SK-BR-3, 72 h, inhibition of proliferation

Illustrative cases are given below, each with its answer.
molecule	assayTarget	EC50
C[C@@H](Nc1ccccc1C(=O)O)c1cc(F)cc2c(=O)n(C)c(C3C[C@@H]3C3CC3)cc12 (single isomer, unassigned)	SKBR3 cells express WT PI3Ka	> 15 µM
Cc1cc([C@@H](C)Nc2ccccc2C(=O)O)c2cc(N3CCN(c4cccnc4C#N)CC3)n(C)c(=O)c2c1	SKBR3 cells express WT PI3Ka	2 to 15 µM
Cc1cc(C(C)Nc2ccccc2C(=O)O)c2cc(N3CCN4CCC[C@H]4C3)n(C)c(=O)c2c1 (single isomer, unassigned)	SKBR3 cells express WT PI3Ka	> 15 µM
Cc1cc(C(C)Nc2ccccc2C(=O)O)c2cc(N3CC(c4ccccc4)C3)n(C)c(=O)c2c1 (single isomer, unassigned) [Example 76]	SKBR3 cells express WT PI3Ka	> 15 µM
C[C@@H](Nc1ccccc1C(=O)O)c1cc(F)cc2c(=O)n(C)c(C3CC3)cc12	SKBR3 cells express WT PI3Ka	> 15 µM
C[C@@H](Nc1ccccc1C(=O)O)c1cc(F)cc2c(=O)n(C)c(I)cc12	SKBR3 cells express WT PI3Ka	> 15 µM
Cc1cc([C@@H](C)Nc2ccccc2C(=O)O)c2cc(-c3cnc(CC(F)(F)F)nc3)n(C)c(=O)c2c1	SKBR3 cells express WT PI3Ka	> 15 µM
Cc1cc(N2CCN(c3cc4c([C@@H](C)Nc5ccccc5C(=O)O)cc(F)cc4c(=O)n3C)CC2)on1	SKBR3 cells express WT PI3Ka	2 to 15 µM
C[C@@H](Nc1ccccc1C(=O)O)c1cc(F)cc2c(=O)n(C)c(-c3cnc(OC4CC4)c(F)c3)cc12	SKBR3 cells express WT PI3Ka	> 15 µM
C[C@@H](Nc1ccccc1C(=O)O)c1cc(F)cc2c(=O)n(C)c(-c3cnc(CF)s3)cc12	SKBR3 cells express WT PI3Ka	> 15 µM

Q: Which EC50 value is on record for C[C@@H](Nc1ccccc1C(=O)O)c1cc(F)cc2c(=O)n(C)c(-c3cnc(C4(C5CC5)CC4)nc3)cc12 ?
Result: > 15 µM

Q: Which EC50 value is on record for Cc1ncc(N2CCN(c3cc4c([C@@H](C)Nc5ccccc5C(=O)O)cc(F)cc4c(=O)n3C)CC2)c(C)n1 ?
Result: 2 to 15 µM

Q: Which EC50 value is on record for C[C@@H](Nc1cccc(F)c1C(=O)O)c1cc(F)cc2c(=O)n(C)c(N3CCN(c4nccs4)CC3)cc12 ?
Result: > 15 µM

Q: Which EC50 value is on record for Cc1cc([C@@H](C)Nc2ccccc2C(=O)O)c2cc(-c3cnc(C(C)(F)F)c(F)c3)n(C)c(=O)c2c1 ?
Result: > 15 µM

* * *

test system: SKBR3 cells express WT PI3Ka; assay: In vitro cell proliferation, SKBR3 cells (CellTiter-Glo); type: cell-based; conditions: Homo sapiens, SK-BR-3, 72 h, inhibition of proliferation
Item-by-item account of EC50

compound	measuredResult
Cc1cc([C@@H](C)Nc2ccc(Cl)nc2C(=O)O)c2cc(-c3ccc(-c4ccc(F)cc4)nc3)n(C)c(=O)c2c1	2 to 15 µM

Q: Under SKBR3 cells express WT PI3Ka: EC50 value of CC(=O)N1CCN(c2cc3c([C@@H](C)Nc4ccccc4C(=O)O)cc(C)cc3c(=O)n2C)CC1 ?
Result: > 15 µM

Q: Under SKBR3 cells express WT PI3Ka: EC50 value of Cc1cc([C@@H](C)Nc2ccccc2C(=O)O)c2cc(-c3ccc(C4(C#N)CC4)nc3)n(C)c(=O)c2c1 ?
Result: > 15 µM

Q: Under SKBR3 cells express WT PI3Ka: EC50 value of Cc1ncc(F)cc1-c1ncc(-c2c(F)c3c([C@@H](C)Nc4ccccc4C(=O)O)cc(F)cc3c(=O)n2C)cc1F ?
Result: > 15 µM

Q: Under SKBR3 cells express WT PI3Ka: EC50 value of CC(Nc1ccccc1C(=O)O)c1cc(F)cc2c(=O)n(C)c(N3C4CCC3CN(CC(F)(F)F)C4)c(F)c12 (single isomer, unassigned) ?
Result: 2 to 15 µM

* * *

system: T47D cells expressing mutant PI3Ka (H1047R); test: In vitro cell proliferation, T47D cells (CellTiter-Glo); format: cell-based; conditions: inhibition of proliferation, 72 hours, read-out: Avg T-47D EC50
Item-by-item account of EC50

Illustrative cases are given below, each with its answer.
compound	EC50
Cc1cc([C@@H](C)Nc2cccc(F)c2C(=O)O)c2cc(N3CCc4c(cnn4C)C3)n(C)c(=O)c2c1 [Example 439]	500 to 2000 nM
Cc1ccc(N[C@H](C)c2cc(F)cc3c(=O)n(C)c(C4CC4C4CC4)cc23)c(C(=O)O)n1 (stereo in doubt) [Example 46]	500 to 2000 nM

From here, focus on the item given below.
Q: Which EC50 value is on record for Cc1cc(C(C)Nc2ccccc2C(=O)O)c2cc(N3C[C@@H]4CCCC[C@H]4C3)n(C)c(=O)c2c1 (single isomer, unassigned) [Example 114] ?
Result: > 15000 nM

* * *

test system: SKBR3 cells express WT PI3Ka; experiment: In vitro cell proliferation, SKBR3 cells (CellTiter-Glo); assay type: cell-based; details: Homo sapiens, SK-BR-3, 72 h, inhibition of proliferation
Item-by-item account of EC50

compound	assayTarget	EC50
Cc1cc(C(CF)Nc2ccccc2C(=O)O)c2cc(N3CCN(CC(F)(F)F)CC3)n(C)c(=O)c2c1 (single isomer, unassigned)	SKBR3 cells express WT PI3Ka	> 15 µM
Cc1cc([C@@H](C)Nc2ccccc2C(=O)O)c2cc(-c3ccc(OC(F)F)nc3)n(C)c(=O)c2c1	SKBR3 cells express WT PI3Ka	> 15 µM
Cc1cc([C@@H](C)Nc2ccccc2C(=O)O)c2cc(C3C[C@H]3C3CC3)n(C)c(=O)c2c1 (stereo partly shown) [Example 303]	SKBR3 cells express WT PI3Ka	> 15 µM
CCON1CCN(c2cc3c([C@@H](C)Nc4cccc(F)c4C(=O)O)cc(C)cc3c(=O)n2C)CC1	SKBR3 cells express WT PI3Ka	> 15 µM
Cc1ccc(N2CCN(c3cc4c([C@@H](C)Nc5cccc(F)c5C(=O)O)cc(F)cc4c(=O)n3C)CC2)c(C)n1	SKBR3 cells express WT PI3Ka	2 to 15 µM
Cc1cc([C@@H](C)Nc2ccccc2C(=O)O)c2cc(-c3cnc(COC(F)(F)F)c(F)c3)n(C)c(=O)c2c1	SKBR3 cells express WT PI3Ka	2 to 15 µM

From here, focus on the item given below.
Q: Which EC50 value is on record for Cc1cc([C@@H](C)Nc2ccccc2C(=O)O)c2cc(-c3cnc(C(C)(C)F)c(F)c3)n(C)c(=O)c2c1 ?
Result: > 15 µM

* * *

test: Mouse pharmacokinetics, single IV or PO dose, plasma LC/MS/MS; format: in vivo; settings: mouse, plasma; CD1 mice, IV 1 mg/kg, 20% PEG400/20% PG/60% of 20% HPβCD solution in water; read-out: PK-Mouse: IV AUC last
endpoint: AUC(0-t) (ng·h/mL)

compound	unitText	measuredResult
Cc1cc(C(C)Nc2ccccc2C(=O)O)c2cc(N3CCC(C)(C)CC3)n(C)c(=O)c2c1 (single isomer, unassigned)	ng·h/mL	3060

[I] Cc1cc(C(C)Nc2ccc(Cl)nc2C(=O)O)c2cc(C3=CCC(C)(C)CC3)n(C)c(=O)c2c1 (single isomer, unassigned)
[II] Cc1cc(C(C)Nc2ccccc2C(=O)O)c2cc(N3CCN(CC(F)(F)F)CC3)n(C)c(=O)c2c1 (single isomer, unassigned)
Q: Among I and II , which shows a numerically higher AUC(0-t) result? State the label of the item chosen.
Result: II
